test system: 138582-337-R-J1-PDC spheroids with HUVEC/MSC, viability; experiment: Anticancer human tumor 138582-337-R-J1-PDC patient-derived Merkel cell tumor cell line growth inhibition [IpAb]; conditions: second compound 0.316 µM; first compound 0.00316 µM; hits give low values
experimental-readout: viability, T/C (%)

compound	assayed-target	experimental-readout	reading-unit	value-observed
Cn1ncnc1[C@H]1c2n[nH]c(=O)c3cc(F)cc(c23)N[C@@H]1c1ccc(F)cc1 + CCN1CCN(Cc2ccc(Nc3ncc(F)c(-c4cc(F)c5nc(C)n(C(C)C)c5c4)n3)nc2)CC1	138582-337-R-J1-PDC spheroids with HUVEC/MSC, viability	viability, T/C	%	87.2
Cn1ncnc1[C@H]1c2n[nH]c(=O)c3cc(F)cc(c23)N[C@@H]1c1ccc(F)cc1 + CC(C)NCC(C(=O)N1CCN(c2ncnc3c2C(C)CC3O)CC1)c1ccc(Cl)cc1	138582-337-R-J1-PDC spheroids with HUVEC/MSC, viability	viability, T/C	%	64.5
CC(C)n1nc(-c2ccc3oc(N)nc3c2)c2c(N)ncnc21 + CCN1CCN(Cc2ccc(Nc3ncc(F)c(-c4cc(F)c5nc(C)n(C(C)C)c5c4)n3)nc2)CC1	138582-337-R-J1-PDC spheroids with HUVEC/MSC, viability	viability, T/C	%	80
CC(C)n1nc(-c2ccc3oc(N)nc3c2)c2c(N)ncnc21 + CC(C)NCC(C(=O)N1CCN(c2ncnc3c2C(C)CC3O)CC1)c1ccc(Cl)cc1	138582-337-R-J1-PDC spheroids with HUVEC/MSC, viability	viability, T/C	%	61.8
COc1c(OCCCN2CCOCC2)ccc2c3n(c(=NC(=O)c4cnc(N)nc4)nc12)CCN3 + CCN1CCN(Cc2ccc(Nc3ncc(F)c(-c4cc(F)c5nc(C)n(C(C)C)c5c4)n3)nc2)CC1	138582-337-R-J1-PDC spheroids with HUVEC/MSC, viability	viability, T/C	%	85.9
COc1c(OCCCN2CCOCC2)ccc2c3n(c(=NC(=O)c4cnc(N)nc4)nc12)CCN3 + CC(C)NCC(C(=O)N1CCN(c2ncnc3c2C(C)CC3O)CC1)c1ccc(Cl)cc1	138582-337-R-J1-PDC spheroids with HUVEC/MSC, viability	viability, T/C	%	74.7

---

tested on: 138582-337-R-J1-PDC spheroids with HUVEC/MSC, viability; assay: Anticancer human tumor 138582-337-R-J1-PDC cell line growth inhibition [IpAb]; details: second compound 1 µM; first compound 0.0316 µM; hits give low values;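 also: spheroids exposed to compounds for seven days; 100% = DMSO vehicle control viability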
# viability, T/C per record follows
experimental-readout: viability, T/C (%)

compound	experimental-readout	reading-unit	value-observed
CCCS(=O)(=O)Nc1ccc(F)c(C(=O)c2c[nH]c3ncc(-c4ccc(Cl)cc4)cc23)c1F + CCN1CCN(Cc2ccc(Nc3ncc(F)c(-c4cc(F)c5nc(C)n(C(C)C)c5c4)n3)nc2)CC1	viability, T/C	%	99.4
CC(C)n1nc(-c2ccc3oc(N)nc3c2)c2c(N)ncnc21 + CCN1CCN(Cc2ccc(Nc3ncc(F)c(-c4cc(F)c5nc(C)n(C(C)C)c5c4)n3)nc2)CC1	viability, T/C	%	52.1
COc1c(OCCCN2CCOCC2)ccc2c3n(c(=NC(=O)c4cnc(N)nc4)nc12)CCN3 + CC(C)NCC(C(=O)N1CCN(c2ncnc3c2C(C)CC3O)CC1)c1ccc(Cl)cc1	viability, T/C	%	39.3
Cc1nc(NC(=O)N2CCCC2C(N)=O)sc1-c1ccnc(C(C)(C)C(F)(F)F)c1 (stereo not given) + CC(C)NCC(C(=O)N1CCN(c2ncnc3c2C(C)CC3O)CC1)c1ccc(Cl)cc1	viability, T/C	%	67.2
CC(C)n1nc(-c2ccc3oc(N)nc3c2)c2c(N)ncnc21 + CC(C)NCC(C(=O)N1CCN(c2ncnc3c2C(C)CC3O)CC1)c1ccc(Cl)cc1	viability, T/C	%	27.5
Cn1ncnc1[C@H]1c2n[nH]c(=O)c3cc(F)cc(c23)N[C@@H]1c1ccc(F)cc1 + CCN1CCN(Cc2ccc(Nc3ncc(F)c(-c4cc(F)c5nc(C)n(C(C)C)c5c4)n3)nc2)CC1	viability, T/C	%	90.9
CC1(C)CCC(CN2CCN(c3ccc(C(=O)NS(=O)(=O)c4ccc(NCC5CCOCC5)c([N+](=O)[O-])c4)c(Oc4cnc5[nH]ccc5c4)c3)CC2)=C(c2ccc(Cl)cc2)C1 + CC(C)NCC(C(=O)N1CCN(c2ncnc3c2C(C)CC3O)CC1)c1ccc(Cl)cc1	viability, T/C	%	65.2
COc1c(OCCCN2CCOCC2)ccc2c3n(c(=NC(=O)c4cnc(N)nc4)nc12)CCN3 + CCN1CCN(Cc2ccc(Nc3ncc(F)c(-c4cc(F)c5nc(C)n(C(C)C)c5c4)n3)nc2)CC1	viability, T/C	%	56.6
CCCS(=O)(=O)Nc1ccc(F)c(C(=O)c2c[nH]c3ncc(-c4ccc(Cl)cc4)cc23)c1F + CC(C)NCC(C(=O)N1CCN(c2ncnc3c2C(C)CC3O)CC1)c1ccc(Cl)cc1	viability, T/C	%	67.3
Cc1nc(NC(=O)N2CCCC2C(N)=O)sc1-c1ccnc(C(C)(C)C(F)(F)F)c1 (stereo not given) + CCN1CCN(Cc2ccc(Nc3ncc(F)c(-c4cc(F)c5nc(C)n(C(C)C)c5c4)n3)nc2)CC1	viability, T/C	%	89.3
Cn1ncc(Cl)c1-c1cc(C(=O)NC(CN)Cc2cccc(F)c2)sc1Cl (stereo not given) + CC(C)NCC(C(=O)N1CCN(c2ncnc3c2C(C)CC3O)CC1)c1ccc(Cl)cc1	viability, T/C	%	71.7
CC1(C)CCC(CN2CCN(c3ccc(C(=O)NS(=O)(=O)c4ccc(NCC5CCOCC5)c([N+](=O)[O-])c4)c(Oc4cnc5[nH]ccc5c4)c3)CC2)=C(c2ccc(Cl)cc2)C1 + CCN1CCN(Cc2ccc(Nc3ncc(F)c(-c4cc(F)c5nc(C)n(C(C)C)c5c4)n3)nc2)CC1	viability, T/C	%	88.4
Cn1nccc1Nc1nccc(-c2ccn(C(CO)c3ccc(Cl)c(F)c3)c(=O)c2)n1 (stereo not given) + CC(C)NCC(C(=O)N1CCN(c2ncnc3c2C(C)CC3O)CC1)c1ccc(Cl)cc1	viability, T/C	%	68.2
C=CCn1c(=O)c2cnc(Nc3ccc(N4CCN(C)CC4)cc3)nc2n1-c1cccc(C(C)(C)O)n1 + CCN1CCN(Cc2ccc(Nc3ncc(F)c(-c4cc(F)c5nc(C)n(C(C)C)c5c4)n3)nc2)CC1	viability, T/C	%	102
C=CCn1c(=O)c2cnc(Nc3ccc(N4CCN(C)CC4)cc3)nc2n1-c1cccc(C(C)(C)O)n1 + CC(C)NCC(C(=O)N1CCN(c2ncnc3c2C(C)CC3O)CC1)c1ccc(Cl)cc1	viability, T/C	%	66.7
C=CC(=O)N1CCN(c2nc(=O)n(-c3c(C)ccnc3C(C)C)c3nc(-c4c(O)cccc4F)c(F)cc23)C(C)C1 (stereo not given) + CC(C)NCC(C(=O)N1CCN(c2ncnc3c2C(C)CC3O)CC1)c1ccc(Cl)cc1	viability, T/C	%	71.9
C=CC(=O)N1CCN(c2nc(=O)n(-c3c(C)ccnc3C(C)C)c3nc(-c4c(O)cccc4F)c(F)cc23)C(C)C1 (stereo not given) + CCN1CCN(Cc2ccc(Nc3ncc(F)c(-c4cc(F)c5nc(C)n(C(C)C)c5c4)n3)nc2)CC1	viability, T/C	%	104
Cn1ncnc1[C@H]1c2n[nH]c(=O)c3cc(F)cc(c23)N[C@@H]1c1ccc(F)cc1 + CC(C)NCC(C(=O)N1CCN(c2ncnc3c2C(C)CC3O)CC1)c1ccc(Cl)cc1	viability, T/C	%	74.2
Cn1nccc1Nc1nccc(-c2ccn(C(CO)c3ccc(Cl)c(F)c3)c(=O)c2)n1 (stereo not given) + CCN1CCN(Cc2ccc(Nc3ncc(F)c(-c4cc(F)c5nc(C)n(C(C)C)c5c4)n3)nc2)CC1	viability, T/C	%	106
Cn1ncc(Cl)c1-c1cc(C(=O)NC(CN)Cc2cccc(F)c2)sc1Cl (stereo not given) + CCN1CCN(Cc2ccc(Nc3ncc(F)c(-c4cc(F)c5nc(C)n(C(C)C)c5c4)n3)nc2)CC1	viability, T/C	%	94.2
